biological target: human A3 adenosine receptor (hA3 AR) (Homo sapiens (Human)); test: Binding affinity for human A3 adenosine receptor ([125I]AB-MECA, CHO cells); conditions: nM ± SEM; [125I]AB-MECA, CHO cells
Sequence (P0DMS8 whole entry): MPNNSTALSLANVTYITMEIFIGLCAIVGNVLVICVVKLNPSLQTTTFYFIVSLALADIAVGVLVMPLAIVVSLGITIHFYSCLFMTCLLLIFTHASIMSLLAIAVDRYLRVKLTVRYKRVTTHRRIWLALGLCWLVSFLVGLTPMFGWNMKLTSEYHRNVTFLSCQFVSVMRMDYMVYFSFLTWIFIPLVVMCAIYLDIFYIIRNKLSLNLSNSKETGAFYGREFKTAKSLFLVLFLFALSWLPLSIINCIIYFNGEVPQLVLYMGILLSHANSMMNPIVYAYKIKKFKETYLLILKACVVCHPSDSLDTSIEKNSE
metric.name: log10 of Ki (log10 of the value in nM)
Lab note - Ki converted to log10 from values in nM.

compound="OC1CO[C@@H](n2cnc3c(NCc4cccc(I)c4)nc(Cl)nc32)[C@H]1O (some centres unmarked)" target_system="human A3 adenosine receptor (hA3 AR) (Homo sapiens (Human))" observed_result=1.63

Quick one: give me log10 of Ki for each item below, same order please.
1. OC1CS[C@@H](n2cnc3c(NCc4cccc(Br)c4)ncnc32)C1O (stereo in doubt)
2. OC1CO[C@@H](n2cnc3c(NCc4cccc(Br)c4)nc(Cl)nc32)C1O (stereo in doubt)
3. OC1CS[C@@H](n2cnc3c(NCc4cccc(Cl)c4)ncnc32)C1O (stereo in doubt)
4. OC1CS[C@@H](n2cnc3c(NCc4cccc5ccccc45)nc(Cl)nc32)C1O (stereo in doubt)

0.83
1.11
0.18
1.39

The following compounds each have a reported value; give each one's log10 of Ki.
1. OC1CS[C@@H](n2cnc3c(NCc4cccc(Br)c4)nc(Cl)nc32)C1O (stereo in doubt)
2. OC1CS[C@@H](n2cnc3c(NCc4ccccc4Cl)nc(Cl)nc32)C1O (stereo in doubt)
3. CNc1nc(Cl)nc2c1ncn2[C@@H]1SC[C@H](O)[C@@H]1O
4. COc1ccc(Cl)cc1CNc1nc(Cl)nc2c1ncn2[C@@H]1SCC(O)C1O (stereo in doubt)
5. OC1CS[C@@H](n2cnc3c(NCc4cccc(F)c4)ncnc32)C1O (stereo in doubt)
6. OC1CS[C@@H](n2cnc3c(NCc4cccc(F)c4)nc(Cl)nc32)C1O (stereo in doubt)

1: 0.95; 2: 1.41; 3: 0.57; 4: 1.10; 5: 0.86; 6: 0.87
